Biological target: AGO2 (loaded with guide RNA) (Homo sapiens, UniProt Q9UKV8 1-859)
Sequence (Q9UKV8 whole entry): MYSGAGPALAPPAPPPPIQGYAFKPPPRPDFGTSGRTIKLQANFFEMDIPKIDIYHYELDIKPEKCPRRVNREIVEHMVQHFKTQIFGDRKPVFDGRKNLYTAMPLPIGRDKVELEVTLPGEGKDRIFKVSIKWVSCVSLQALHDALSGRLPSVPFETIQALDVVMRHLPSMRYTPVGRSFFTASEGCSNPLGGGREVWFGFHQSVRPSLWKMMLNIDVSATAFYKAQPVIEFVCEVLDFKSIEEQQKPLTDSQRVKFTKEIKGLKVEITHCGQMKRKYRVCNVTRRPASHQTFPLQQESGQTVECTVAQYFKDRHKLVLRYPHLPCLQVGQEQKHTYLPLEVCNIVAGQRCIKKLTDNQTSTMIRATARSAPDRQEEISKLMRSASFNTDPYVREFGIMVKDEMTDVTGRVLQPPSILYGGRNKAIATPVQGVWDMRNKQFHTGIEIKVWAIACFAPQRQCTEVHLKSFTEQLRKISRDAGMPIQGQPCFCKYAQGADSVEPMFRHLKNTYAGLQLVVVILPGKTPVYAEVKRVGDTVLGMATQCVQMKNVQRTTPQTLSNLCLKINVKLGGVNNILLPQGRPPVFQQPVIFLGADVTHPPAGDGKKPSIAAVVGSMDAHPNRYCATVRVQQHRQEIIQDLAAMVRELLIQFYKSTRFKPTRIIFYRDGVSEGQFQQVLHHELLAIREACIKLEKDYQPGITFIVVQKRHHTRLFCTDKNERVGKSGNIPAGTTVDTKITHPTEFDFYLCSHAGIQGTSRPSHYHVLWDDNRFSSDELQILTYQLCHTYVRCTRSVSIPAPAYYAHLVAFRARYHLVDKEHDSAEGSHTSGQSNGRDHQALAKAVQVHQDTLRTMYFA
Test: filter binding; 18 mM HEPES pH 7.4, 100 mM K-acetate, 1 mM Mg-acetate, 0.01% IGEPAL, 0.01 mg/mL yeast tRNA, 5 mM DTT, BSA, glycerol, 37 C, 4 h, 1-5 pM target; kinetics with 10
Details: protein: recombinant, tags: 3xFLAG-SUMOEu1 (removed by SENPEuB cleavage), g11-22 paired
property_measured: Kd

binder	property_measured	recorded_measurement
let-7a / m11_22 (also labelled m10_22) (mixed, 5'-phosphate guide) RNA 1: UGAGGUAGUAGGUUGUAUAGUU RNA 2: UUUUUAACUAUACAACCUUUUUUUUUUUUUUU	Kd	~0.4 nM
